Source listed as BindingDB's records for doi:10.1124/jpet.104.081224.

TARGET_ENTITY: Solute carrier organic anion transporter family member 1B3 (Homo sapiens, UniProt Q9NPD5)
Sequence (Q9NPD5 whole entry): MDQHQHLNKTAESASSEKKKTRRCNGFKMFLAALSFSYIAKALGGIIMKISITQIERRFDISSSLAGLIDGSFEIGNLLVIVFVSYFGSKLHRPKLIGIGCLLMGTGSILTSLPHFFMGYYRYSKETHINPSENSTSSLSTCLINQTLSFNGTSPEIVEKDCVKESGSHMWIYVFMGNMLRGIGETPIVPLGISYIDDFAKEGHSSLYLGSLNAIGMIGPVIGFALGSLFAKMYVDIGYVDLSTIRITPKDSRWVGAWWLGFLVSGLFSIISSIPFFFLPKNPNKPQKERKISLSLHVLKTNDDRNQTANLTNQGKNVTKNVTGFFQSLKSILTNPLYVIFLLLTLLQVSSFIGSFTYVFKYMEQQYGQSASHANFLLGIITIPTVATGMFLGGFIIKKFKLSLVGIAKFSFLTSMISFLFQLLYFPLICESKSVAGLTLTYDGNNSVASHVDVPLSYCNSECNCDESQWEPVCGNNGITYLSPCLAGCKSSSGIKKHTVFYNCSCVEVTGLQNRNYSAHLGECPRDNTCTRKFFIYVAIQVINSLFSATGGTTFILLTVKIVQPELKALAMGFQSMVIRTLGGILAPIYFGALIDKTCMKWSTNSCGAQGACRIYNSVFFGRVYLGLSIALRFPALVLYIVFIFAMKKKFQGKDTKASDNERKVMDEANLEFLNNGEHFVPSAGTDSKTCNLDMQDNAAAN
READOUT: Ki (µM)
Enter your answer as a number in µM; do not include the unit.

For the molecule CN(C)C(=O)CCSC(SCCC(=O)O)c1cccc(C=Cc2ccc3ccc(Cl)cc3n2)c1 (stereo unspecified) , report Ki.
0.6
